Measured EC50 by item
- measuredOn: FXR (Homo sapiens (Human))
- measurementProtocol: FXR EC50 (FXR agonist activity reported with each example)
- Type: cell-based

molecule: O=C(O)c1c(F)ccc(-c2noc(C34CCC(OCc5c(-c6c(Cl)cccc6Cl)noc5C5CC5)(CC3)CC4)n2)c1F
measuredOn: FXR (Homo sapiens (Human))
uom: µM
EC50: 0.25
--
molecule: O=C(O)c1cc(F)c2nc(C(O)C34CCC(OCc5c(-c6c(Cl)cccc6Cl)noc5C5CC5)(CC3)CC4)sc2c1 (stereo not shown)
measuredOn: FXR (Homo sapiens (Human))
uom: µM
EC50: 1
--
molecule: O=C(O)c1ccc(F)c(OCC23CCC(OCc4c(-c5c(Cl)cccc5Cl)noc4C4CC4)(CC2)CC3)c1
measuredOn: FXR (Homo sapiens (Human))
uom: µM
EC50: 0.023
--
molecule: CC(C)(C#N)c1ccc(C23CCC(/C=C/c4c(-c5c(Cl)cncc5Cl)noc4C4CC4)(CC2)CO3)cc1
measuredOn: FXR (Homo sapiens (Human))
uom: µM
EC50: 1.5

###

Entries annotated with measured pEC50
- measuredOn: FXR (Homo sapiens (Human), UniProt Q96RI1)
- Sequence (Q96RI1 262-486): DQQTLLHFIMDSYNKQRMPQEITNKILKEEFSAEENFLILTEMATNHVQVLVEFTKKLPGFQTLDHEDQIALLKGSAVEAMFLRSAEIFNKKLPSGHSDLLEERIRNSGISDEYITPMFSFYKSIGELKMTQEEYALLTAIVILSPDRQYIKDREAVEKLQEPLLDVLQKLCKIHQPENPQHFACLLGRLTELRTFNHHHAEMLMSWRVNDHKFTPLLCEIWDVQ
- measurementProtocol: FXR EC50 (FXR agonist activity reported with each example)
- Assay type: cell-based
pEC50: −log10 of the molar value.
readoutKind: pEC50

chemicalSmiles: O=C(O)c1ccc(OC2CCC2)c2nc(C34CCC(OCc5c(-c6c(Cl)cncc6Cl)noc5C5CC5)(CC3)CC4)ccc12
experimentalValue: 7.55
//
chemicalSmiles: O=C(O)c1cc(OCC23CCC(COCc4c(-c5c(Cl)cncc5Cl)noc4C4CC4)(CC2)CC3)cc(C(F)(F)F)c1
experimentalValue: 6.52
//
chemicalSmiles: COc1ccc(C(=O)O)cc1-c1noc(C23CCC(OCc4c(-c5c(Cl)cncc5Cl)noc4C4CC4)(CC2)CC3)n1
experimentalValue: 6.20
//
chemicalSmiles: O=C(O)c1ccc(F)c(OCC23CCC(OCc4c(-c5c(Cl)cncc5Cl)noc4C4CC4)(CC2)CC3)c1
experimentalValue: 7.66
//
chemicalSmiles: O=C(O)c1ccc(-c2noc(C34CCC(COCc5c(-c6c(Cl)cccc6Cl)noc5C5CC5)(CC3)CO4)n2)cc1
experimentalValue: 6.01
//
chemicalSmiles: O=C(O)c1cc(F)c2nc(OCC34CCC(OCc5c(-c6c(Cl)cccc6Cl)noc5C5CC5)(CC3)CC4)sc2c1
experimentalValue: 7.74
//
chemicalSmiles: NC(=O)c1cc(-c2noc(C34CCC(/C=C/c5c(-c6c(Cl)cncc6Cl)noc5C5CC5)(CC3)CC4)n2)cc(C(F)(F)F)c1
experimentalValue: 6.82

###

- measuredOn: FXR (Homo sapiens (Human), UniProt Q96RI1)
- measurementProtocol: FXR EC50 (FXR agonist activity reported with each example)
- Type: cell-based

compound: O=C(O)c1ccc(-c2noc(C34CCC(/C=C/c5c(-c6c(Cl)cccc6Cl)noc5C5CC5)(CC3)CC4)n2)cc1
uom: nM
EC50: 51

compound: COC(=O)c1ccc(-c2noc(C34CCC(COCc5c(-c6c(Cl)cccc6Cl)noc5C5CC5)(CC3)CC4)n2)cc1
uom: nM
EC50: 1700

compound: CCOc1cc(C(=O)O)nc2ccc(OCC34CCC(OCc5c(-c6c(Cl)cncc6Cl)noc5C5CC5)(CC3)CC4)cc12
uom: nM
EC50: 14

compound: O=C(O)c1cccc(-c2noc(C34CCC(COCc5c(-c6ccccc6OC(F)(F)F)noc5C5CC5)(CC3)CC4)n2)c1
uom: nM
EC50: 320

compound: O=C(O)c1sc(OCC23CCC(OCc4c(-c5c(Cl)cncc5Cl)noc4C4CC4)(CC2)CC3)nc1C(F)(F)F
uom: nM
EC50: 210

compound: Clc1cccc(Cl)c1-c1noc(C2CC2)c1COC12CCC(COc3cccc(-c4nn[nH]n4)c3)(CC1)CC2
uom: nM
EC50: 120

compound: O=C(O)c1ccc2nc(C(O)C34CCC(OCc5c(-c6c(Cl)cccc6Cl)noc5C5CC5)(CC3)CC4)sc2c1 (stereo not shown)
uom: nM
EC50: 490
